target: MCL-1 (Homo sapiens); assay: Protein-protein interaction assay MCL-1/Noxa BH3 peptide (MCL-1 assay), TR-FRET; type: binding; settings: MBP-MCL-1 / Noxa BH3-derived peptide, median
Sequence (Q07820 whole entry): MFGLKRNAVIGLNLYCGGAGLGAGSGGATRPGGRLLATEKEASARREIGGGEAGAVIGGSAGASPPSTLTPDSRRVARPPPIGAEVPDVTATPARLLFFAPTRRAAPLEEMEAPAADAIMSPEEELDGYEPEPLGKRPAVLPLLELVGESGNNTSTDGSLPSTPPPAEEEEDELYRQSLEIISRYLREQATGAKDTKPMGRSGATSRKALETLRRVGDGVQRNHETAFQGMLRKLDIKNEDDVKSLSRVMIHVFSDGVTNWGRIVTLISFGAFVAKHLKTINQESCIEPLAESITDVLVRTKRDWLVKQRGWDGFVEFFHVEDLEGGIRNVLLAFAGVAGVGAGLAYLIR
Outcome Measure: IC50 (nM)
Only the number, expressed in nM, is required.

These solved cases illustrate the format of a correct answer.
Cn1nc2c(c1CN1CCOCC1)-c1cccc3c(CCCOc4cccc5ccccc45)c(C(=O)O)n(c13)CCCCOC2 (single isomer, unassigned; enantiomer 2) [Example 080] ... 31.2
COc1cc2cc(c1)-c1cccc3c(CCCOc4cccc5ccccc45)c(C(=O)O)n(c13)CCOCCO2 (racemic) ... 2310
Cc1nn(C)c2c1-c1cccc3c(CCCOc4cccc5ccccc45)c(C(=O)O)n(c13)CCCN(c1ccc(N3CCN(S(=O)(=O)N(C)C)CC3)cc1)C2 (single isomer, unassigned; enantiomer 2) [Example 1-107] ... 89.7
COc1ccc(OCc2nn(C)c3c2-c2cccc4c(CCCOc5cccc6ccccc56)c(C(=O)O)n(c24)CCCCOC3)cc1 (racemic) [Example 319] ... 37.1
CCc1c2c(nn1C)CN(C)CCCn1c(C(=O)O)c(CCCOc3cccc4ccccc34)c3ccc(C)c-2c31 (single isomer, unassigned; enantiomer 1) [Example 145] ... 1.17

Task item: Assign IC50 to the following record: Cc1nn(C)c2c1-c1cccc3c(CCCOc4cccc5ccccc45)c(C(=O)O)n(c13)CCCCOC2 (single isomer, unassigned; enantiomer 1) [Example 317]
Reply: 11.5
